The entries below are paired with their reported zone of inhibition at 50000 µg/mL.
tested on: Saccharomyces cerevisiae; assay: Antifungal activity against Saccharomyces cerevisiae ATCC 9763 at 50 mg/ml after 72 hrs by agar diffusion test; type: functional; conditions: ATCC 9763, 72 h, read-out: DIZ
// units = mm; emit number, no label

Some entries whose results are on file:
compound_smiles=CC[C@H](CO)NP(=O)(c1ccccc1)c1ccccc1 units_symbol=mm reported_measurement=16
compound_smiles=CC[C@H](CO)NC(=O)/C=C/c1ccccc1 units_symbol=mm reported_measurement=13
compound_smiles=CC[C@H](CO)NC(=S)Nc1ccccc1 units_symbol=mm reported_measurement=15

Problem: Bench note: what zone of inhibition at 50000 µg/mL did "CC[C@H](CO)NCc1ccc2c(c1)Cc1ccccc1-2" show?
Result: 20

Problem: Next: "CC[C@@H]1COc2cc3ccccc3c(=O)n21"
Result: 11

Problem: Repeat for the following molecule: "CC[C@H](CO)NCc1ccc2ccc3cccc4ccc1c2c34"
Result: 35

Problem: One more molecule: "CC[C@H](CO)N1Cc2ccccc2C1"
Result: 16

Problem: And what about the molecule "CC[C@H](CO)N1C(=O)C=C(C)C1=O" ?
Result: 21

Problem: Could you do the same for "CC[C@H](CO)NCc1c2ccccc2cc2ccccc12" , please?
Result: 32

Problem: Follow-up entry: "CC[C@H](CO)NCc1cccc2ccccc12"
Result: 32

Problem: Thanks! And "CC[C@H](CO)Nc1cccc(Br)n1" ?
Result: 10

Problem: Please answer likewise for "CC[C@H](CO)NC(=O)c1ccccc1O"
Result: 15

Problem: Follow-up entry: "CC[C@H](CO)NCc1ccc(-c2ccccc2)cc1"
Result: 18

Problem: Please answer likewise for "CC[C@H](CO)NCc1ccc2ccccc2c1"
Result: 10

Problem: Check "CC[C@H](CO)NC1c2ccccc2-c2ccccc21" too.
Result: 22

Problem: Cool, now "CC[C@H](CO)NCc1ccccc1OC"
Result: 16

* * *

test system: Priestia megaterium; test: Antibacterial activity against Bacillus megaterium NRRL 1353895 at 50 mg/ml after 24 hrs by agar diffusion test; format: functional; conditions: NRRL 1353895, 24 h, read-out: DIZ
// zone of inhibition at 50000 µg/mL lookup, one value per entry
Form entry: value (mm) — number only.

Examples from the recorded data:
compound_smiles=CC[C@H](CO)NC1c2ccccc2-c2ccccc21 reported_measurement=22
compound_smiles=CC[C@H](CO)NCc1ccccc1O reported_measurement=12
compound_smiles=CC[C@H](CO)NCc1ccc2ccc3cccc4ccc1c2c34 reported_measurement=13
compound_smiles=CC[C@H](CO)NCc1cccc2ccccc12 reported_measurement=10
compound_smiles=CC[C@H](CO)NCc1ccccc1OC reported_measurement=11

Problem: Please give the measured zone of inhibition at 50000 µg/mL for this compound: "CC[C@H](CO)NCc1ccc(-c2ccccc2)cc1"
Result: 19

Problem: Same lookup for "CC[C@H](CO)NC(=O)c1ccccc1O" , please.
Result: 13

Problem: Input "CC[C@H](CO)N1C(=O)C=C(C)C1=O"
Result: 20

Problem: Record: "CC[C@H](CO)NCc1ccnc2ccccc12"
Result: 11

Problem: How about this compound: "CC[C@H](CO)Nc1cccc(Br)n1"
Result: 15

* * *

tested on: Micrococcus luteus; test: Antibacterial activity against Sarcina lutea ATCC 9341 at 50 mg/ml after 24 hrs by agar diffusion test; format: functional; settings: ATCC 9341, 24 h, read-out: DIZ
Entries and their measured zone of inhibition at 50000 µg/mL follow.
Give just the number in mm; leave the unit off.

compound_smiles=CC[C@H](CO)NCc1ccccc1O quantity_kind="zone of inhibition at 50000 µg/mL" units_symbol=mm reported_measurement=12
compound_smiles=CC[C@H](CO)Nc1cccc(Br)n1 quantity_kind="zone of inhibition at 50000 µg/mL" units_symbol=mm reported_measurement=17
compound_smiles=CC[C@@H]1COc2cc3ccccc3c(=O)n21 quantity_kind="zone of inhibition at 50000 µg/mL" units_symbol=mm reported_measurement=13
compound_smiles=CC[C@H](CO)NC(=O)/C=C/c1ccccc1 quantity_kind="zone of inhibition at 50000 µg/mL" units_symbol=mm reported_measurement=15
compound_smiles=CC[C@H](COC(C)=O)N1C(=O)C=CC1=O quantity_kind="zone of inhibition at 50000 µg/mL" units_symbol=mm reported_measurement=38
compound_smiles=CC[C@H](CO)NCc1ccc2ccccc2c1 quantity_kind="zone of inhibition at 50000 µg/mL" units_symbol=mm reported_measurement=17

Next molecule, zone of inhibition at 50000 µg/mL to be filled in.
Problem: Hi! What's the reported zone of inhibition at 50000 µg/mL for "CC[C@H](CO)NP(=O)(c1ccccc1)c1ccccc1" on Micrococcus luteus?
Result: 18
